# system-name: D(2) dopamine receptor (Rattus norvegicus, UniProt P61169)
# Sequence (P61169 whole entry): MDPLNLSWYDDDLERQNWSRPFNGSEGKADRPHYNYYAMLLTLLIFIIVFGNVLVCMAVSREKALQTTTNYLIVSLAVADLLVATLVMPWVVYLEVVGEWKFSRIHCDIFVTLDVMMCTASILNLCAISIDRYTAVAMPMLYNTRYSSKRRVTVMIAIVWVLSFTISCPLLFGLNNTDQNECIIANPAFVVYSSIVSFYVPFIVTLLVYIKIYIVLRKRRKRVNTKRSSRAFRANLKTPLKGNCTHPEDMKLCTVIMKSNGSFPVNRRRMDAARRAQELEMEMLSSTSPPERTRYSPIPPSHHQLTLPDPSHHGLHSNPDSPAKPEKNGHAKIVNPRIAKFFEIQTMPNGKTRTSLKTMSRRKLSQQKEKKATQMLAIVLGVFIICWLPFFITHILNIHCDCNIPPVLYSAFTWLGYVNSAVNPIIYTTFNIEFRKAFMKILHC
# assay-explanation: Displacement of [3H]-raclopride from dopamine D2 receptor in rat striatal membranes after 1 hr by liquid scintillation counting analysis
# Format: cell membranes, Membrane
# reported-conditions: read-out: Ki
pKi: −log10 of the molar value.
reported-property: pKi

| compound | system-name | result |
| --- | --- | --- |
| Oc1cc2c(cc1O)C1Cc3cccc(O)c3CN1CC2 (stereo unspecified) | D(2) dopamine receptor (Rattus norvegicus, UniProt P61169) | 7.03 |
| Oc1cccc2c1CN1CCc3cc4c(cc3C1C2)OCO4 (stereo unspecified) | D(2) dopamine receptor (Rattus norvegicus, UniProt P61169) | 7.46 |
| COc1ccc2c(c1)CC1c3cc(OCc4ccccc4)c(OCc4ccccc4)cc3CCN1C2 (stereo unspecified) | D(2) dopamine receptor (Rattus norvegicus, UniProt P61169) | 4.39 |
| COc1ccc2c(c1)CC1c3cc(O)c(O)cc3CCN1C2 (stereo unspecified) | D(2) dopamine receptor (Rattus norvegicus, UniProt P61169) | 7.11 |
| COc1ccc2c(c1)CC1c3cc(OC)c(Cl)cc3CCN1C2 (stereo unspecified) | D(2) dopamine receptor (Rattus norvegicus, UniProt P61169) | 5.69 |
| COc1cc2c(cc1OC)C1Cc3cccc(OC)c3CN1CC2 (stereo unspecified) | D(2) dopamine receptor (Rattus norvegicus, UniProt P61169) | 6.41 |

====

Each entry below carries its reported Ki.
# system-name: UniProt P61169
# assay-explanation: Displacement of [3H]-raclopride from dopamine D2 receptor in rat striatal membranes after 1 hr by liquid scintillation counting analysis
# Format: cell membranes, Membrane
# reported-conditions: read-out: Ki
reported-property: Ki (nM)

| compound | system-name | unit-name | result |
| --- | --- | --- | --- |
| Oc1ccc2c(c1)CC1c3cc(O)c(O)cc3CCN1C2 (stereo not given) | UniProt P61169 | nM | 396 |
| Oc1ccc2c(c1)CC1c3cc(O)c(Cl)cc3CCN1C2 (stereo not given) | UniProt P61169 | nM | 188 |
| Oc1ccc2c(c1)CC1c3cc4c(cc3CCN1C2)OCO4 (stereo not given) | UniProt P61169 | nM | 7510 |
| COc1ccc2c(c1)CC1c3cc4c(cc3CCN1C2)OCO4 (stereo not given) | UniProt P61169 | nM | 1330 |
| COc1ccc2c(c1)CC1c3cc(OC)c(OC)cc3CCN1C2 (stereo not given) | UniProt P61169 | nM | 8540 |

====

# system-name: UniProtKB P61169
# assay-explanation: Displacement of [3H]-raclopride from dopamine D2 receptor in rat striatal membranes after 1 hr by liquid scintillation counting analysis
# Type: cell membranes, Membrane
# reported-conditions: read-out: pKi (converted)

| compound | system-name | Ki |
| --- | --- | --- |
| Oc1ccc2c(c1)CC1c3cc(O)c(O)cc3CCN1C2 (centres undefined) | UniProtKB P61169 | 389 nM |
| COc1cc2c(cc1OC)C1Cc3cccc(OC)c3CN1CC2 (centres undefined) | UniProtKB P61169 | 363 nM |
| COc1ccc2c(c1)CC1c3cc(OC)c(OC)cc3CCN1C2 (centres undefined) | UniProtKB P61169 | 5130 nM |
| Oc1cccc2c1CN1CCc3cc4c(cc3C1C2)OCO4 (centres undefined) | UniProtKB P61169 | 28.2 nM |
| Oc1cc2c(cc1O)C1Cc3cccc(O)c3CN1CC2 (centres undefined) | UniProtKB P61169 | 85.1 nM |
| COc1ccc2c(c1)CC1c3cc(O)c(O)cc3CCN1C2 (centres undefined) | UniProtKB P61169 | 74.1 nM |
| Oc1ccc2c(c1)CC1c3cc4c(cc3CCN1C2)OCO4 (centres undefined) | UniProtKB P61169 | 6920 nM |
| COc1ccc2c(c1)CC1c3cc4c(cc3CCN1C2)OCO4 (centres undefined) | UniProtKB P61169 | 1150 nM |
| COc1ccc2c(c1)CC1c3cc(OCc4ccccc4)c(OCc4ccccc4)cc3CCN1C2 (centres undefined) | UniProtKB P61169 | 41700 nM |
